# target of assay: F508del/F508del CFTR (Homo sapiens, UniProt P13569, DEL508-508)
# Construct: cells isolated from CF patients with the homozygous mutation; endogenous in cells; host or cells: primary human bronchial epithelial (hBE) cells from F508del/F508del CF patients
# Sequence (P13569 with tags, fused parts or gaps DEL508-508): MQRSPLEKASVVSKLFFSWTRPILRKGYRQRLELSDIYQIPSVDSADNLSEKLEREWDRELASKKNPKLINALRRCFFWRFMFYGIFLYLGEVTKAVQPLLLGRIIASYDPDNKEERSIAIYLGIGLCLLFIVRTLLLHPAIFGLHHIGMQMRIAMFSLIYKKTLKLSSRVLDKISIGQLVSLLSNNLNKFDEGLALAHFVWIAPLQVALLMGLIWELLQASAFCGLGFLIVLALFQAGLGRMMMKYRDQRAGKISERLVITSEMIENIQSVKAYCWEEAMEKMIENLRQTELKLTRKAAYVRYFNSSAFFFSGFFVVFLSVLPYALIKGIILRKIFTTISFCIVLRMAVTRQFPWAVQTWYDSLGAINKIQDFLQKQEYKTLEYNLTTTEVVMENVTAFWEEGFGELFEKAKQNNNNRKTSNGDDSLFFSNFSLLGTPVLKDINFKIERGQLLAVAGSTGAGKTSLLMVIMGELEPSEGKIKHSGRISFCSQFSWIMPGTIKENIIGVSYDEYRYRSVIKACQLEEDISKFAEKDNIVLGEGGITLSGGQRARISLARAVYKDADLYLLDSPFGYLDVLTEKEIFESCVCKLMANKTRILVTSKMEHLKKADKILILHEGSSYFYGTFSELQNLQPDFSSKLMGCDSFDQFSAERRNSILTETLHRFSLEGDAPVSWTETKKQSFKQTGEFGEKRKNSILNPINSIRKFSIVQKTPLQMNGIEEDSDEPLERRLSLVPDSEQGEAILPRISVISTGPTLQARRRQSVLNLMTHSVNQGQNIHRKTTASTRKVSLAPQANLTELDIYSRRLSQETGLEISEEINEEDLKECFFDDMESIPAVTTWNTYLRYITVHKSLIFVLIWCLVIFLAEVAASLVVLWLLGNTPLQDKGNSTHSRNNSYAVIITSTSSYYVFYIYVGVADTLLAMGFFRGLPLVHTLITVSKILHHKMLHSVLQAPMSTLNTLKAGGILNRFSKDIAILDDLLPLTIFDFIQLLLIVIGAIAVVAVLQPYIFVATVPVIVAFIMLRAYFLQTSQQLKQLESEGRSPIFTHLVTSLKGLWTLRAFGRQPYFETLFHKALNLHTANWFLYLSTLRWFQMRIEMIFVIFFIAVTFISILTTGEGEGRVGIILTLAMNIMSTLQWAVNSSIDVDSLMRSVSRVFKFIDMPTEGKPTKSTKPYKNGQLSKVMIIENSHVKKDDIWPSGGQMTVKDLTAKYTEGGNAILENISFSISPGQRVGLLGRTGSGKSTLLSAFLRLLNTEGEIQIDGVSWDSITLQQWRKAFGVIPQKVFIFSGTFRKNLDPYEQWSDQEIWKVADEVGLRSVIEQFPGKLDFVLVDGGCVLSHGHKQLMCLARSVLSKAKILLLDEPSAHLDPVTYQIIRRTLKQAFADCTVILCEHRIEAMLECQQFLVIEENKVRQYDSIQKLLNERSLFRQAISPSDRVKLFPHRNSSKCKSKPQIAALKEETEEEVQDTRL
# protocol: Transepithelial Clamp Circuit (TECC-24) conductance assay on primary human bronchial epithelial cells
# Assay type: cell-based
# condition summary: primary hBE cells from F508del/F508delCFTR patients; relative to positive control (3 μM) coupled with control potentiator = 100%
outcome measure: Maximum % activity (%)

O=C(O)c1ccc([C@H]2C[C@@H](NC(=O)C3(c4ccc5c(c4)OC(F)(F)O5)CC3)CCO2)cc1 [Example 31]	65
O=C(O)c1ccc([C@H]2C[C@@H](NC(=O)C3(c4ccc5c(c4)OC(F)(F)O5)CC3)C[C@@H](c3ccccc3)O2)c(F)c1 (racemic)	83
O=C(O)c1cccc([C@H]2C[C@@H](NC(=O)C3(c4ccc5c(c4)OC(F)(F)O5)CC3)C[C@@H](c3ccccc3)O2)c1 [Example 27]	94
O=C(O)c1ccc([C@H]2C[C@@H](NC(=O)C3(c4ccc5c(c4)OC(F)(F)O5)CC3)CCO2)cc1 (racemic) [Example 14]	73
